human vasopressin V1b receptor (Homo sapiens) data, read-out pKi
Sequence (P47901 whole entry): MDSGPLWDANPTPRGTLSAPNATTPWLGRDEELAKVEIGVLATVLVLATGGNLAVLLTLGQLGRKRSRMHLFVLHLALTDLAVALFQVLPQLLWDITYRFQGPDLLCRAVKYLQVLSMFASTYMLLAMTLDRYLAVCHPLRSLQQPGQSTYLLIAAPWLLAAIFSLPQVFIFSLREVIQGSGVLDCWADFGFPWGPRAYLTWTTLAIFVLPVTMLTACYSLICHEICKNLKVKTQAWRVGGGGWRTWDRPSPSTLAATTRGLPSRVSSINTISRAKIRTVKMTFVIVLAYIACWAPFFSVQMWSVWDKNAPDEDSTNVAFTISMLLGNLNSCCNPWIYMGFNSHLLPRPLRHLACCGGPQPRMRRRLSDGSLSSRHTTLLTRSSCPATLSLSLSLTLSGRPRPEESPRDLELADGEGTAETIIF
pKi: −log10 of the molar value. Structures can show the parent of a compound that is named as a salt.

{"compound": "CCOc1ncccc1[C@]1(NC(=O)N2CCC(C3CCN(C)CC3)CC2)C(=O)N(S(=O)(=O)c2ccc(OC)cc2OC)c2ccc(C#N)cc21 (single isomer, unassigned) [Example 61B, trifluoroacetate]", "recorded_measurement": "> 8.00"}
{"compound": "CCOc1ccccc1S(=O)(=O)N1C(=O)C(NC(=O)N2CCN(C3CCN(C)CC3)CC2)(c2cccnc2OCC)c2cc(C#N)ccc21.O=C(O)C(F)(F)F (racemic) [Example 3, trifluoroacetate]", "recorded_measurement": "7.30 to 8.00"}

INPUT: Retrieve pKi measured for CCOc1ncccc1C1(NC(=O)N2CCN(C3CCN(C)CC3)CC2)C(=O)N(S(=O)(=O)c2ccc(OC)cc2OC)c2ccc(C#N)cc21 (racemic) and print it.
OUTPUT: > 8.00

* * *

Reported microsomal CLint at 0.5 μM values are given for each entry in this list.
# test_description: Determination of the microsomal half-life / microsomal clearance (human)
# Format: in vitro ADME
# test_context: pH 7.4; human liver microsomes, 0.5 μM test substance, 0.25 mg microsomal protein/ml; read-out: Human Mikrosomal Clearance
# Protocol: The metabolic stability of a compound can be determined, for example, by incubating a solution of this compound with liver microsomes from particular species (for example rat, dog or human) and determining the half-life of the compound under these conditions (RS Obach, Curr Opin Drug Discov Devel. 2001, 4, 36-44). […] Compounds with increased metabolic stability (determined in the liver microsome test) are therefore probably also degraded more slowly in the liver. […]
Where a name gives a salt, the structure may show the parent alone.

{"compound": "CCOc1ncccc1C1(NC(=O)N2CCN(C3CCN(C)CC3)CC2)C(=O)N(S(=O)(=O)c2ccccc2)c2ccc(C#N)cc21 (racemic)", "microsomal CLint at 0.5 μM": "< 60 µL/min/mg"}

INPUT: Retrieve microsomal CLint at 0.5 μM measured for CCOc1ncccc1C1(NC(=O)N2CCC(N3CCN(C)CC3)CC2)C(=O)N(S(=O)(=O)c2ccc(OC)cc2OC)c2ccc(C#N)cc21 (racemic) [Example 31] and print it.
OUTPUT: 60 to 120 µL/min/mg

INPUT: Retrieve microsomal CLint at 0.5 μM measured for CCOc1ncccc1C1(NC(=O)N2CCC(N3CCN(CC)CC3)CC2)C(=O)N(S(=O)(=O)c2ccc(OC)cc2OC)c2ccc(C#N)cc21 (single isomer, unassigned) [Example 37B] and print it.
OUTPUT: < 60 µL/min/mg

INPUT: Retrieve microsomal CLint at 0.5 μM measured for CCOc1ncccc1C1(NC(=O)N2CCC(N3CCN(C)CC3)CC2)C(=O)N(S(=O)(=O)c2ccccc2)c2ccc(C#N)cc21 (racemic) and print it.
OUTPUT: < 60 µL/min/mg

INPUT: Retrieve microsomal CLint at 0.5 μM measured for CCOc1ncccc1[C@]1(NC(=O)N2CCC(C3CCN(C)CC3)CC2)C(=O)N(S(=O)(=O)c2ccc(OC)cc2OC)c2ccc(C#N)cc21 (single isomer, unassigned) [Example 61B, trifluoroacetate] and print it.
OUTPUT: < 60 µL/min/mg

INPUT: Retrieve microsomal CLint at 0.5 μM measured for CCOc1ncccc1C1(NC(=O)N2CCC(N3CCN(CC)CC3)CC2)C(=O)N(S(=O)(=O)c2ccccc2)c2ccc(C#N)cc21 (racemic) [Example 40] and print it.
OUTPUT: 60 to 120 µL/min/mg

INPUT: Retrieve microsomal CLint at 0.5 μM measured for CCOc1ncccc1C1(NC(=O)N2CCC(N3CCN(C)CC3)CC2)C(=O)N(S(=O)(=O)c2ccc(OC)cc2)c2ccc(C#N)cc21.O=C(O)C(F)(F)F (racemic) [Example 35, trifluoroacetate] and print it.
OUTPUT: 60 to 120 µL/min/mg

INPUT: Retrieve microsomal CLint at 0.5 μM measured for CCOc1ncccc1C1(NC(=O)N2CCN(C3CCNCC3)CC2)C(=O)N(S(=O)(=O)c2ccc(OC)cc2OC)c2ccc(C#N)cc21.O=C(O)C(F)(F)F.O=C(O)C(F)(F)F (racemic) [Example 25, bis(trifluoroacetate)] and print it.
OUTPUT: < 60 µL/min/mg
